These entries and their values trace back to the supplement of paper PMC9170038.

Test system: MS2 coat protein
methodDescription: apparent KD of MS2 coat protein; designed switch direction (-1 OFF switch, 1 ON switch): 1; higher = weaker reporter binding
testContext: input ligand: FMN 200 uM
measuredQuantity: apparent KD of MS2 coat protein
Give the figure together with its unit, number first.

{"entrySequence": "ACAUGAGACCAAGGAUAUUUUGUACCUACAUGUGACAUGAGGAUCACCCAUGUGGUAAGUAUGAGAGAGAAGGUGGAGAUAUGU [Equivalence 23 - Jieux - Same State NG 2] (Eterna round: R96, puzzle: Same State NG 2)", "apparent KD of MS2 coat protein": "34.4 nM"}

Memo: GCAGGACAUGAGGAUCACCCAUGUCUCAAAUAUUGAGGAUAUGGACACGGUAUAUCCGAACCAGAAGGCAACCUGC [SS1 Teenbexe 20] (Eterna round: R96, puzzle: Same State 1) , reported apparent KD of MS2 coat protein: 38.9 nM
